Reference source: ChEMBL document CHEMBL1201862

Tested on: MDA-MB-435
Assay: NCI tumour cell line growth inhibition, 48 h
The source made the active and inactive calls. Rule as the data show it: active = GI50 up to about 1.1 µM and inactive = higher.
recorded_endpoint: GI50

>  <compound>
C=C1CC(C)(COc2cc(=O)oc3ccccc23)OC1=O (stereo not drawn)

>  <test_value>
5.53 µM (inactive)

$$$$
>  <compound>
O=C(COc1ccc(OCC(=O)N2C(=O)CC/C2=N\c2ccc(Cl)cc2)cc1)N1C(=O)CS/C1=N\c1ccc(Cl)cc1

>  <test_value>
> 100 µM (inactive)

$$$$
>  <compound>
COc1cc2nc(-c3cccs3)nc(N3C(c4cc(OC)c(OC)c(OC)c4)=NNC(=O)c4ccccc43)c2cc1OC

>  <test_value>
13.9 µM (inactive)

$$$$
>  <compound>
CC(C)OP(=O)(OC(C)C)C(C(C)C)N(C)/C(N)=N\C1=NC(C(F)(F)F)(C(F)(F)F)N=C(C(C(F)(F)F)C(F)(F)F)O1 (stereo not drawn)

>  <test_value>
1.8 µM (inactive)

$$$$
>  <compound>
C=C[C@H]1CN2CCc3c([nH]c4cc(O)ccc34)[C@@H]2C[C@@H]1C[C@H]1c2[nH]c3ccccc3c2CCN1C

>  <test_value>
2.01 µM (inactive)

$$$$
>  <compound>
CC(C)(C)c1cc[n+](C[n+]2ccc(C(C)(C)C)cc2)cc1

>  <test_value>
> 100 µM (inactive)

$$$$
>  <compound>
O=C(O)c1ccc2c(c1)CC1(C2)Cc2ccccc2C1=O (stereo not drawn)

>  <test_value>
> 100 µM (inactive)

$$$$
>  <compound>
CN(CCNC(=O)c1nn(C)c2c1Cc1ccccc1-2)CCNC(=O)c1nn(C)c2c1Cc1ccccc1-2

>  <test_value>
15.2 µM (inactive)

$$$$
